Test system: Mycolicibacterium smegmatis
ASSAY NAME: Antibacterial activity against Mycobacterium smegmatis mc2155
Assay type: functional
PARAMETER MEASURED: MIC (µM)

COMPOUND	ASSAYED SYSTEM	CENSORING OPERATOR	ASSAY VALUE
COCCOCCOCCNc1nc(=O)n([C@H]2C[C@H](O)[C@@H](CO)O2)cc1C	Mycolicibacterium smegmatis	>	200
O=c1nc(NCCCCc2ccccc2)ccn1[C@H]1C[C@H](O)[C@@H](CO)O1	Mycolicibacterium smegmatis	>	200
CCCCCCCCNc1ccn([C@@H]2O[C@H](CO)[C@@H](O)[C@H]2O)c(=O)n1	Mycolicibacterium smegmatis	>	200
NCC[C@H](O)C(=O)N[C@@H]1C[C@H](N)[C@@H](O[C@H]2O[C@H](CN)[C@@H](O)[C@H](O)[C@H]2O)[C@H](O)[C@H]1O[C@H]1O[C@H](CO)[C@@H](O)[C@H](N)[C@H]1O [AMIKACIN]	Mycolicibacterium smegmatis	=	50
CCCCCCCCCCNc1ccn([C@H]2C[C@H](O)[C@@H](CO)O2)c(=O)n1	Mycolicibacterium smegmatis	=	140
CCCCCCCCCCCCNc1ccn([C@H]2C[C@H](O)[C@@H](CO)O2)c(=O)n1	Mycolicibacterium smegmatis	=	70
CCCCCCNc1nc(=O)n([C@H]2C[C@H](O)[C@@H](CO)O2)cc1C	Mycolicibacterium smegmatis	>	200
CCCCCCCCCCCCCCNc1ccn([C@H]2C[C@H](O)[C@@H](CO)O2)c(=O)n1	Mycolicibacterium smegmatis	>	200
CCCCCCCCCCCCNc1nc(=O)n([C@H]2C[C@H](O)[C@@H](CO)O2)cc1C	Mycolicibacterium smegmatis	=	24
CCCCCCCCCCNc1nc(=O)n([C@H]2C[C@H](O)[C@@H](CO)O2)cc1C	Mycolicibacterium smegmatis	=	50
CCCCCCCCNc1nc(=O)n([C@H]2C[C@H](O)[C@@H](CO)O2)cc1C	Mycolicibacterium smegmatis	>	200
CO[C@H]1/C=C/O[C@@]2(C)Oc3c(C)c(O)c4c(O)c(c(/C=N/N5CCN(C)CC5)c(O)c4c3C2=O)NC(=O)/C(C)=C\C=C\[C@H](C)[C@H](O)[C@@H](C)[C@@H](O)[C@@H](C)[C@H](OC(C)=O)[C@@H]1C [RIFAMPIN]	Mycolicibacterium smegmatis	=	5
CCCCCCCCCCCCNc1nc(=O)n([C@H]2C[C@H](OC(=O)OCCOCCOCCO)[C@@H](CO)O2)cc1C	Mycolicibacterium smegmatis	=	68
CCCCCCCCCCNc1ccn([C@@H]2O[C@H](CO)[C@@H](O)[C@H]2O)c(=O)n1	Mycolicibacterium smegmatis	>	200

* * *

Test system: Cladosporium halotolerans
ASSAY NAME: Antifungal activity against Cladosporium-halotolerans SRX7729178 STG-52B assessed as reduction in fungal growth at 0.1 to 3.5 mM measured for 24 days by drop dilution assay relative to control
Assay type: functional
STUDY CONDITIONS: dose 0.1-3.5 mM, time 24.0 day
The source made the active and inactive calls. No cut-off for these calls is given here.
PARAMETER MEASURED: inhibition

> print(dat)
                               input.smiles             assayed.system  assay.value
1  CCCCCCCCNc1nc(=O)n([C@H]2C[C@H](O)[C@@H](CO)O2)cc1C  Cladosporium halotolerans       Active
2  CCCCCCCCCCNc1nc(=O)n([C@H]2C[C@H](OC(=O)OCCOCCOCCO)[C@@H](CO)O2)cc1C  Cladosporium halotolerans     inactive
3  CCCCCCCCCCCCNc1nc(=O)n([C@H]2C[C@H](O)[C@@H](CO)O2)cc1C  Cladosporium halotolerans       Active
4                         Nc1nc(=O)[nH]cc1F  Cladosporium halotolerans       Active
5  CCCCCCCCCCNc1nc(=O)n([C@H]2C[C@H](O)[C@@H](CO)O2)cc1C  Cladosporium halotolerans     inactive

* * *

Reported MIC is given for each of the following compounds.
System: Bacillus subtilis
ASSAY NAME: Antibacterial activity against Bacillus subtilis ATCC 6633
Type: functional
PARAMETER MEASURED: MIC (µM)

> print(dat)
                               input.smiles  scale.unit  censoring.operator  assay.value
1  CCCCCCCCCCNc1nc(=O)n([C@H]2C[C@H](OC(=O)OCCOCCOCCO)[C@@H](CO)O2)cc1C          µM                   =           90
2  CCCCCCCCCCCCNc1nc(=O)n([C@H]2C[C@H](O)[C@@H](CO)O2)cc1C          µM                   =           24
3  CCCCCCCCCCNc1ccn([C@H]2C[C@H](O)[C@@H](CO)O2)c(=O)n1          µM                   =          140
4  CCCCCCCCCCCCNc1nc(=O)n([C@H]2C[C@H](OC(=O)OCCOCCOCCO)[C@@H](CO)O2)cc1C          µM                   =           68
5  CCCCCCCCNc1nc(=O)n([C@H]2C[C@H](O)[C@@H](CO)O2)cc1C          µM                   >          200

* * *

ASSAY NAME: Subchronic toxicity in ip dosed mouse administered for 5 days and observed for 4 weeks
Type: organism-based
STUDY CONDITIONS: in vivo
PARAMETER MEASURED: LD50 at 672 h (mg/kg)

> print(dat)
                               input.smiles  scale.unit  assay.value
1  CCCCCCCCCCCCNc1nc(=O)n([C@H]2C[C@H](O)[C@@H](CO)O2)cc1C       mg/kg          215
